Test system: TRKA;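 note: kd values determined as follow-up on hits from a single-replicate KINOMEscan panel screen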
Construct: gene NTRK1
pKd: −log10 of the molar value.
endpoint: pKd

compound	endpoint	value.reported
COC(=O)C(Cc1ccccc1)NC(=O)NC1CCN(c2ccnc(Nc3ccc(F)cc3)n2)C1 (centres unmarked)	pKd	5.82
O=C(Nc1n[nH]c2cc(-c3ccsc3)ccc12)C1CC1	pKd	5.51

----------
System: DYRK2;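 note: KINOMEscan kinase panel screen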
details: concentration: 1 μM, replicates: in singlicate; n = 1
Simple rule here: %Inh less than 4% is Yes, otherwise No.

compound	category
Fc1ccc(-c2nc[nH]c2-c2ccncc2)cc1	No
Fc1ccc(-c2nn3cccc(F)c3c2-c2ccncc2)cc1	Yes
CNc1nc(-c2ccc3c(N)n[nH]c3c2)cc(N2C[C@@H](C(=O)NC3CCCCC3)OC[C@H]2C)n1	Yes
Cl.Cl.Cl.N#Cc1ccc(CCNc2nccc(-c3cccc(CN4CCNCC4)c3)n2)cc1	No
O=C(Nc1n[nH]c2nc(-c3cccs3)c(Br)cc12)C1CCCC1	No
O=C1NC(=O)C(c2ccc(Cl)cc2)=C1Nc1ccc(O)cc1	Yes
CS(=O)(=O)CCNCc1nc(-c2ccc3ncnc(Nc4ccc5c(cnn5Cc5ccccc5)c4)c3c2)cs1.Cl.Cl	Yes
COC(=O)C(NC(=O)NC1CCN(c2ccnc(Nc3ccc(F)cc3)n2)C1)c1ccccc1 (centres unmarked)	No
Cc1ccc(NC(=O)Nc2ccccc2F)cc1-c1ccc(C(=O)Nc2ccncc2)cc1	No
CS(=O)(=O)Cc1ccc(Nc2nccc(-c3c(-c4cccc(NC(=O)C5CCCCC5)c4)nn4ncccc34)n2)cc1	No
O=C(Nc1n[nH]c2nc(-c3ccco3)c(Br)cc12)C1CCN(Cc2ccccc2)C1.O=C(O)[C@H](O)[C@@H](O)C(=O)O (centres unmarked)	No
Cc1ccc(NC(=O)Nc2ccccc2)cc1-c1ccc(C(=O)Nc2ccncc2)cc1	No
CC[C@@H]1CO[C@H](C(=O)Nc2ccccc2)CN1c1cc(-c2ccc3c(N)n[nH]c3c2)nc(NC)n1	No
COc1ccc(-c2coc3ccc(-c4nnc(C)o4)cc23)cc1	Yes
CC(=O)c1cccc(NC(=O)NC2CCN(c3ccnc(Nc4ccc(F)cc4)n3)C2)c1 (centres unmarked)	No
